Activity for assorted compounds
- Tested on: Staphylococcus aureus
- protocol: Bacteriostatic activity against methicillin-resistant Staphylococcus aureus ATCC 33591 infected in human keratinocytes assessed as change in bacterial count after 24 hrs
- Type: functional
readout-type: Activity (mg/L)

{"compound": "Nc1nc(/C(=N/O)C(=O)N[C@@H]2C(=O)N3C(C(=O)O)=C(/C=C4\\CCN([C@@H]5CCNC5)C4=O)CS[C@H]23)ns1 [CEFTOBIPROLE]", "qualifier-sign": "=", "reported-result": 1.95}
{"compound": "CO/N=C(\\C(=O)N[C@@H]1C(=O)N2C(C(=O)O)=C(COC(N)=O)CS[C@H]12)c1ccco1 [CEFUROXIME]", "qualifier-sign": "=", "reported-result": 200}
{"compound": "CO/N=C(\\C(=O)N[C@@H]1C(=O)N2C(C(=O)O)=C(CSc3nc(=O)c(O)nn3C)CS[C@H]12)c1csc(N)n1 [CEFTRIAXONE]", "qualifier-sign": ">", "reported-result": 200}
{"compound": "CO[C@@]1(NC(=O)Cc2cccs2)C(=O)N2C(C(=O)O)=C(COC(N)=O)CS[C@@H]21 [CEFOXITIN]", "qualifier-sign": ">", "reported-result": 200}

---

- Test system: Staphylococcus aureus
- protocol: Ratio of MIC for hospital-acquired methicillin-resistant Staphylococcus aureus ATCC 33591 by microdilution method at pH 7.4 to ratio of MIC for hospital-acquired methicillin-resistant Staphylococcus aureus ATCC 33591 by microdilution method at pH 5.5
- Format: functional

{"compound": "CC1=C(C(=O)O)N2C(=O)[C@@H](NC(=O)[C@H](N)c3ccccc3)[C@H]2SC1 [CEPHALEXIN ANHYDROUS]", "fold change (FC)": 16}
{"compound": "CO/N=C(\\C(=O)N[C@@H]1C(=O)N2C(C(=O)O)=C(CSc3nc(=O)c(O)nn3C)CS[C@H]12)c1csc(N)n1 [CEFTRIAXONE]", "fold change (FC)": 512}
{"compound": "Nc1nc(/C(=N/O)C(=O)N[C@@H]2C(=O)N3C(C(=O)O)=C(/C=C4\\CCN([C@@H]5CCNC5)C4=O)CS[C@H]23)ns1 [CEFTOBIPROLE]", "fold change (FC)": 4}
{"compound": "CO/N=C(\\C(=O)N[C@@H]1C(=O)N2C(C(=O)O)=C(COC(N)=O)CS[C@H]12)c1ccco1 [CEFUROXIME]", "fold change (FC)": 128}
{"compound": "CO[C@@]1(NC(=O)Cc2cccs2)C(=O)N2C(C(=O)O)=C(COC(N)=O)CS[C@@H]21 [CEFOXITIN]", "fold change (FC)": 512}

---

- system-tested: MecA (Staphylococcus aureus, UniProt Q7DHH4)
- Sequence (Q7DHH4 whole entry): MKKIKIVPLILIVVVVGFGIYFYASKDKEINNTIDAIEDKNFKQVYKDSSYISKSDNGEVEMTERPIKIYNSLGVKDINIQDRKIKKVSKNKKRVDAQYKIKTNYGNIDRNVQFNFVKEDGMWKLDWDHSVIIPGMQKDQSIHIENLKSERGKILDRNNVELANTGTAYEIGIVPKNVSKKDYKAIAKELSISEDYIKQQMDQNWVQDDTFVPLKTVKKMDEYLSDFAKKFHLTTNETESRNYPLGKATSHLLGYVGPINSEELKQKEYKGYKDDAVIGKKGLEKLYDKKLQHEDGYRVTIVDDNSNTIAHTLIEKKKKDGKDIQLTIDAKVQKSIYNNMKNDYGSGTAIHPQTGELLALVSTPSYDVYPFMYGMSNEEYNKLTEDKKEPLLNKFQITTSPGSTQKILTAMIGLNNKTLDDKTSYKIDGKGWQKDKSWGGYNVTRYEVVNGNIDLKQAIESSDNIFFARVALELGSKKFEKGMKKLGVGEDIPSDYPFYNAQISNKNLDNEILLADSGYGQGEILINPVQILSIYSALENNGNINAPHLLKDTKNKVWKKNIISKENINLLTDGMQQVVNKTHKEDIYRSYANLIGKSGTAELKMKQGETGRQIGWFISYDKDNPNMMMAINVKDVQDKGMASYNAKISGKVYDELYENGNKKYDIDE
- protocol: Binding affinity to Staphylococcus aureus ATCC […] PBP2a by Western blotting at pH 7.4 in presence of 100 uM Bocillin FL
pIC50: −log10 of the molar value.
readout-type: pIC50

{"compound": "Nc1nc(/C(=N/O)C(=O)N[C@@H]2C(=O)N3C(C(=O)O)=C(/C=C4\\CCN([C@@H]5CCNC5)C4=O)CS[C@H]23)ns1 [CEFTOBIPROLE]", "system-tested": "MecA (Staphylococcus aureus, UniProt Q7DHH4)", "reported-result": 5.10}

---

- Tested on: Staphylococcus aureus
- protocol: Bacteriostatic activity against methicillin-susceptible Staphylococcus aureus ATCC 25923 infected in human keratinocytes assessed as change in bacterial count after 24 hrs
- Format: functional
Activity for assorted compounds
readout-type: Activity (mg/L)

{"compound": "CC1=C(C(=O)O)N2C(=O)[C@@H](NC(=O)[C@H](N)c3ccccc3)[C@H]2SC1 [CEPHALEXIN ANHYDROUS]", "readout-type": "Activity", "reported-result": 200}
{"compound": "CO/N=C(\\C(=O)N[C@@H]1C(=O)N2C(C(=O)O)=C(COC(N)=O)CS[C@H]12)c1ccco1", "readout-type": "Activity", "reported-result": 0.26}
{"compound": "CO[C@@]1(NC(=O)Cc2cccs2)C(=O)N2C(C(=O)O)=C(COC(N)=O)CS[C@@H]21", "readout-type": "Activity", "reported-result": 1.84}
{"compound": "Nc1nc(/C(=N/O)C(=O)N[C@@H]2C(=O)N3C(C(=O)O)=C(/C=C4\\CCN([C@@H]5CCNC5)C4=O)CS[C@H]23)ns1", "readout-type": "Activity", "reported-result": 0.91}
{"compound": "CO/N=C(\\C(=O)N[C@@H]1C(=O)N2C(C(=O)O)=C(CSc3nc(=O)c(O)nn3C)CS[C@H]12)c1csc(N)n1", "readout-type": "Activity", "reported-result": 14.8}

---

- system-tested: MecA (Staphylococcus aureus)
- protocol: Binding affinity to Staphylococcus aureus ATCC […] PBP2a by Western blotting at pH 5.5 in presence of 100 uM Bocillin FL

{"molecule": "Nc1nc(/C(=N/O)C(=O)N[C@@H]2C(=O)N3C(C(=O)O)=C(/C=C4\\CCN([C@@H]5CCNC5)C4=O)CS[C@H]23)ns1 [CEFTOBIPROLE]", "readout-unit": "nM", "IC50": 1900}

---

- System: Staphylococcus aureus
- protocol: Antimicrobial activity against methicillin-susceptible Staphylococcus aureus ATCC 25923 infected in human keratinocytes assessed as bacterial count per mg of cell protein at low extracellular compound concentration after 24 hrs
- Type: functional
// classify: if (log10cfu < 3) fulfilled else not fulfilled

{"substance-smiles": "CO/N=C(\\C(=O)N[C@@H]1C(=O)N2C(C(=O)O)=C(COC(N)=O)CS[C@H]12)c1ccco1", "group-label": "not fulfilled"}
{"substance-smiles": "Nc1nc(/C(=N/O)C(=O)N[C@@H]2C(=O)N3C(C(=O)O)=C(/C=C4\\CCN([C@@H]5CCNC5)C4=O)CS[C@H]23)ns1", "group-label": "fulfilled"}
{"substance-smiles": "CO/N=C(\\C(=O)N[C@@H]1C(=O)N2C(C(=O)O)=C(CSc3nc(=O)c(O)nn3C)CS[C@H]12)c1csc(N)n1", "group-label": "fulfilled"}
